Target Desc: HPK1 protein (Homo sapiens, UniProt Q92918)
Construct: host or cells: Jurkat cells
Sequence (Q92918 whole entry): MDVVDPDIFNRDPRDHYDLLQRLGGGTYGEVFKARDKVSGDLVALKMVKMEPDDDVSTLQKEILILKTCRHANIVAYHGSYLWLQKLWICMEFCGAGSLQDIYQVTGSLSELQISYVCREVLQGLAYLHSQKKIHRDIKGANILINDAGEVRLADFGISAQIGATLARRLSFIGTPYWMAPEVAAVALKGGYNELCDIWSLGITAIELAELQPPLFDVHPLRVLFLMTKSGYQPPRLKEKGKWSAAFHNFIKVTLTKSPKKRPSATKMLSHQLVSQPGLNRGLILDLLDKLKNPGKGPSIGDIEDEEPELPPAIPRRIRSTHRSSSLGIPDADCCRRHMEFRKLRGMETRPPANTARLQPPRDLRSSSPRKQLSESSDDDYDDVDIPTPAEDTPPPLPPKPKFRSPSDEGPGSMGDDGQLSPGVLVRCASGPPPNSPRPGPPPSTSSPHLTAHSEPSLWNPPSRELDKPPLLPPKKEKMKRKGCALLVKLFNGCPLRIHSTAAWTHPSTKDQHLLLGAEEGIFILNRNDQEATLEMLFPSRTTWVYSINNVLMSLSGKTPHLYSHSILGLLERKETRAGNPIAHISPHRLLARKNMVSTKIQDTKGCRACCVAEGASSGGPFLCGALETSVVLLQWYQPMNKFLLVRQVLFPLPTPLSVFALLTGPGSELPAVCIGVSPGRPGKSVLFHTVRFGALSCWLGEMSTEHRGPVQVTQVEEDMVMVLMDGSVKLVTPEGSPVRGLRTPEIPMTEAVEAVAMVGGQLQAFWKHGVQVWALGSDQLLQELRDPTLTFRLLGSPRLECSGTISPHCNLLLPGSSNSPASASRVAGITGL
Measurement Protocol: Detection of HPK1 protein expression level in Jurkat cells (24 h)
Assay type: cell-based
Applied Conditions: 24 hours incubation
Counter-ions that a name gives are not always drawn.
Measured DC50 values are reported for all entries that follow.

O=C1CCN(c2cc3c(cc2F)N2CCN(CC4CC5(CCN(c6ccc(Nc7ccc(-c8cnc9cc(F)ccn89)c8c7C(=O)NC8)nc6)CC5)C4)C[C@@H]2CC3)C(=O)N1 [Trifluoroacetic acid salt of compound 15] :: < 20 nM

In: Output measured DC50 for this item: O=C1CC[C@H](NC(=O)c2cc3c(cc2F)N2CCN(CC4CCN(c5ccc(Nc6ccc(-c7cnc8cc(F)ccn78)c7c6C(=O)NC7)nc5)CC4)C[C@H]2CC3)C(=O)N1 [Trifluoroacetic acid salt of compound 8]
Out: < 20 nM

In: Output measured DC50 for this item: Cn1ccc2c(-c3ccc(Nc4ccc(N5CCC(CN6CCN7c8cc(F)c(N9CCC(=O)NC9=O)cc8CC[C@@H]7C6)CC5)cn4)c4c3CNC4=O)ccnc21 [Trifluoroacetic acid salt of compound 32]
Out: < 20 nM

###

Measurement Protocol: Pharmacokinetic test in rats
Format: in vivo, SD rats
Applied Conditions: rat, plasma, po, i. g., 10 mg/kg
Counter-ions that a name gives are not always drawn.
Measured Parameter: Cmax (ng/mL)
Give the quantity in ng/mL, number only.

Sample answers from the record:
O=C1CCN(c2cc3c(cc2F)N2CCN(C4CC5(CCN(c6ccc(Nc7ccc(-c8cnc9cc(F)ccn89)c8c7C(=O)NC8)nc6)CC5)C4)C[C@H]2CC3)C(=O)N1 [Trifluoroacetic acid salt of compound 19] :: 465
CN(C)Cc1nc(Nc2ccc(-c3cnc4cc(F)ccn34)c3c2C(=O)NC3)ccc1[C@@H]1CCOC1 [Control compound 1, reference compound] :: 14.6
O=C1CCN(c2cc3c(cc2F)N2CCN(C4CC5(CCN(c6ccc(Nc7ccc(-c8cnc9cc(F)ccn89)c8c7C(=O)NC8)nc6)CC5)C4)C[C@@H]2CC3)C(=O)N1 [Trifluoroacetic acid salt of compound 20] :: 382

In: Output measured Cmax for this item: N#Cc1ccn2c(-c3ccc(Nc4ccc(N5CCC(CN6CCN7c8cc(F)c(N9CCC(=O)NC9=O)cc8CC[C@H]7C6)CC5)cn4)c4c3CNC4=O)cnc2c1 [Trifluoroacetic acid salt of compound 39]
Out: 777

In: Output measured Cmax for this item: O=C1CCN(c2cc3c(cc2F)N2CCN(CC4CCN(c5ccc(Nc6ccc(-c7cnc8cc(F)ccn78)c7c6C(=O)NC7)nc5)CC4)C[C@H]2CC3)C(=O)N1 [Trifluoroacetic acid salt of compound 6]
Out: 721
